- System: Rattus norvegicus
- Assay protocol: Percentage fall in systolic blood pressure after 3 hours at 50 mg/kg given perorally
- Type: functional, Artery
- Run conditions: route oral
# Decrease in SBP listing for each entry below
State the answer as a number, implicitly in %.

Consider the reported Decrease in SBP for these compounds:
O=C1COC2(CCN(C3CCc4ccccc4C3)CC2)CN1 (stereo unspecified)
23
CCC1NC(=O)COC12CCN(CC(O)C1COc3ccccc3O1)CC2 (stereo unspecified)
36
O=C(NCC1CCN(CCc2c[nH]c3ccccc23)CC1)c1ccccc1
30

Read the next record carefully.
Field Decrease in SBP (entry CN1CC2(CCN(CCc3c[nH]c4ccccc34)CC2)OCC1=O ) reads 34

* * *

- System: Rattus norvegicus
- Assay protocol: Percentage fall in systolic blood pressure after 2 hours at 50 mg/kg given perorally
- Type: functional, Artery
- Run conditions: route oral
Quantity kind: Decrease in SBP (%)
State the answer as a number, implicitly in %.

Field Decrease in SBP (entry CCC1NC(=O)COC12CCN(CCc1c[nH]c3ccccc13)CC2 (centres undefined) ) reads 54

Field Decrease in SBP (entry O=C1COC2(CCN(CCc3c[nH]c4ccccc34)CC2)CN1c1ccccc1 ) reads 59

Field Decrease in SBP (entry O=C1COC2(CCN(C3CCc4ccccc4C3)CC2)CN1 (centres undefined) ) reads 24

* * *

- Tested on: Rattus norvegicus
- Assay protocol: Percentage fall in systolic blood pressure after 3 hours at 12.5 mg/kg given perorally
- Type: functional, Artery
- Run conditions: route oral
Quantity kind: Decrease in SBP (%)
State the answer as a number, implicitly in %.

CC1NC(=O)COC12CCN(CCc1c[nH]c3ccccc13)CC2 (stereo unspecified)
24
O=C1COC2(CCN(CCc3c[nH]c4ccccc34)CC2)CN1
29
CN1CC2(CCN(CCCC(=O)c3ccc(F)cc3)CC2)OCC1=O
25

Field Decrease in SBP (entry CCN1CC2(CCN(CCc3c[nH]c4ccccc34)CC2)OCC1=O ) reads 30

Field Decrease in SBP (entry CN1CC2(CCN(CCc3c[nH]c4ccccc34)CC2)OCC1=O ) reads 20

Field Decrease in SBP (entry CCCN1CC2(CCN(CCc3c[nH]c4ccccc34)CC2)OCC1=O ) reads 24

* * *

- Tested on: Rattus norvegicus
- Assay protocol: Percentage fall in systolic blood pressure after 4 hours at 25 mg/kg given perorally
- Format: functional, Artery
- Run conditions: route oral
# Decrease in SBP listing for each entry below

Consider the reported Decrease in SBP for these compounds:
O=C1COC2(CCN(CCc3c[nH]c4ccccc34)CC2)CN1c1cccc(F)c1
18%
O=C1COC2(CCN(CCc3ccc(O)cc3)CC2)CN1
21%
O=C1COC2(CCN(CCC(=O)c3ccc(F)cc3)CC2)CN1
20%

The measured Decrease in SBP that CCN1CC2(CCN(CCCC(=O)c3ccc(F)cc3)CC2)OCC1=O showed for Rattus norvegicus is 13%

* * *

- Test system: Rattus norvegicus
- Assay protocol: Percentage fall in systolic blood pressure after 1 hr at 25 mg/kg given perorally
- Type: functional, Artery
- Run conditions: route oral
Quantity kind: Decrease in SBP

Consider the reported Decrease in SBP for these molecules:
O=C(NC1CCN(CCc2c[nH]c3ccccc23)CC1)c1ccccc1
27%
O=C1COC2(CCN(CC3COc4ccccc4O3)CC2)CN1 (stereo not drawn)
53%
O=C1COC2(CCN(CCc3ccc(O)cc3)CC2)CN1
13%
O=C1COC2(CCN(CCc3c[nH]c4ccccc34)CC2)CN1c1cccc(F)c1
29%
O=C1COC2(CCN(CCCC(=O)c3ccc(F)cc3)CC2)CN1
50%

Field Decrease in SBP (entry O=C1COC2(CCN(CCC(=O)c3ccc(F)cc3)CC2)CN1 ) reads 27%

Field Decrease in SBP (entry CN1CC2(CCN(CC(O)C3COc4ccccc4O3)CC2)OCC1=O (stereo in doubt; 60) ) reads 41%

Field Decrease in SBP (entry CCN1CC2(CCN(CCCC(=O)c3ccc(F)cc3)CC2)OCC1=O ) reads 35%
